Here, each record is paired with measured pKd data.
# ASSAYED_SYSTEM: UniProt:P09382
# ASSAY: fluorescence anisotropy assay, compound as inhibitor of galectin / fluorescein tagged saccharide probe interaction
# Assay type: binding
pKd: −log10 of the molar value.

- COMPOUND: "CO[C@@H]1[C@@H](n2cc(-c3nc(Cl)c(Cl)s3)nn2)[C@@H](O)[C@@H](CO)O[C@@H]1Sc1cc(Br)cnc1C#N [Example 55]"
  ASSAYED_SYSTEM: "UniProt:P09382"
  pKd: 6.82
- COMPOUND: "CO[C@@H]1[C@@H](n2cc(-c3nc(Cl)cs3)nn2)[C@@H](O)[C@@H](CO)O[C@@H]1Sc1cc(Br)ccc1C#N [Example 57]"
  ASSAYED_SYSTEM: "UniProt:P09382"
  pKd: 7.68
- COMPOUND: "C#Cc1cnc(C(=O)N(C)C)c(S[C@H]2O[C@H](CO)[C@H](O)[C@H](n3cc(-c4nc(Cl)cs4)nn3)[C@H]2OC)c1 [Example 91]"
  ASSAYED_SYSTEM: "UniProt:P09382"
  pKd: 7.62
- COMPOUND: "CO[C@@H]1[C@@H](n2cc(-c3nc(Cl)cs3)nn2)[C@@H](O)[C@@H](CO)O[C@@H]1Sc1cc2scnc2cc1C#N [Example 100]"
  ASSAYED_SYSTEM: "UniProt:P09382"
  pKd: 7.49
- COMPOUND: "CCOC1C(n2cc(-c3csc(N)n3)nn2)[C@@H](O)C(CO)O[C@@H]1Sc1ccc(C#N)c(Cl)c1 (stereo partly drawn) [Example 88]"
  ASSAYED_SYSTEM: "UniProt:P09382"
  pKd: 6.89
- COMPOUND: "CO[C@@H]1[C@@H](n2cc(-c3nccs3)nn2)[C@@H](O)[C@@H](CO)O[C@@H]1Sc1cc(Br)cnc1C#N [Example 3]"
  ASSAYED_SYSTEM: "UniProt:P09382"
  pKd: 6.96

----------
Here, each record is paired with measured Kd data.
# ASSAYED_SYSTEM: Galectin-1 (Homo sapiens)
# Sequence (P09382 whole entry): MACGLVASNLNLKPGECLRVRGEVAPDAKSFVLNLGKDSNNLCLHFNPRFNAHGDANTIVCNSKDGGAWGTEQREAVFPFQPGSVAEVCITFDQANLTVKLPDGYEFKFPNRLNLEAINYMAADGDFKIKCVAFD
# ASSAY: fluorescence anisotropy assay, compound as inhibitor of galectin / fluorescein tagged saccharide probe interaction
# Assay type: binding

- MOLECULE: "CO[C@@H]1[C@@H](n2cc(-c3csc(O)n3)nn2)[C@@H](O)[C@@H](CO)O[C@@H]1Sc1ccc2ncsc2c1 [Example 98]"
  Kd / nM: 64
- MOLECULE: "CO[C@@H]1[C@@H](n2cc(-c3nc(Cl)cs3)nn2)[C@@H](O)[C@@H](CO)O[C@@H]1Sc1cncc(Cl)c1 [Example 53]"
  Kd / nM: 54
- MOLECULE: "CNC(=O)c1ccc(Br)cc1S[C@H]1OC(CO)[C@H](O)C(n2cc(-c3nccs3)nn2)C1OC (stereo partly shown) [Example 61]"
  Kd / nM: 80
- MOLECULE: "CO[C@@H]1[C@@H](n2cc(-c3nc(Cl)cs3)nn2)[C@@H](O)[C@@H](CO)O[C@@H]1Sc1cnc2ncsc2c1 [Example 101]"
  Kd / nM: 110
- MOLECULE: "CNC(=O)c1ccc(Cl)cc1S[C@H]1OC(CO)[C@H](O)C(n2cc(-c3nccs3)nn2)C1OC (stereo partly shown) [Example 62]"
  Kd / nM: 78
- MOLECULE: "CO[C@@H]1[C@@H](n2cc(-c3nc(C)cs3)nn2)[C@@H](O)[C@@H](CO)O[C@@H]1Sc1cc(Br)ccc1F [Example 69]"
  Kd / nM: 650
- MOLECULE: "N#Cc1ncc(Cl)cc1S[C@H]1O[C@H](CO)[C@H](O)[C@H](n2cc(-c3csc(Cl)n3)nn2)[C@H]1O [Example 70]"
  Kd / nM: 330
- MOLECULE: "Nc1nc(-c2cn([C@@H]3[C@@H](O)[C@@H](Sc4cc(Cl)cnc4-c4ncc[nH]4)O[C@H](CO)[C@@H]3O)nn2)cs1 [Example 74]"
  Kd / nM: 360
- MOLECULE: "CO[C@@H]1[C@@H](n2cc(-c3nc(C)c(Cl)s3)nn2)[C@@H](O)[C@@H](CO)O[C@@H]1Sc1cc(Br)ccc1C#N [Example 65]"
  Kd / nM: 460
- MOLECULE: "CO[C@@H]1[C@@H](n2cc(-c3csc(N)n3)nn2)[C@@H](O)[C@@H](CO)O[C@@H]1Sc1cc(Cl)cnc1-c1ccccn1 [Example 26]"
  Kd / nM: 17
- MOLECULE: "CO[C@@H]1[C@@H](n2cc(-c3nc(Cl)cs3)nn2)[C@@H](O)[C@@H](CO)O[C@@H]1Sc1cc(Cl)cnc1-c1ccccn1 [Example 76]"
  Kd / nM: 10
- MOLECULE: "CO[C@@H]1[C@@H](n2cc(-c3csc(N)n3)nn2)[C@@H](O)[C@@H](CO)O[C@@H]1Sc1cc(Br)ccc1C#N [Example 59]"
  Kd / nM: 54
- MOLECULE: "CO[C@@H]1[C@@H](n2cc(-c3nc(Cl)cs3)nn2)[C@@H](O)[C@@H](CO)O[C@@H]1Sc1cc(Cl)cnc1C#N [Example 13]"
  Kd / nM: 25
